assay protocol: Determination of photochemical properties of saponified dyes
Assay type: physicochemical
assay conditions: after saponification; 150 mM KCl, 10 mM HEPES, 50 μM EDTA, pH = 7.22
property: λem (fluorescence emission maximum) (nm)
Numbers only, in nm.

Asked: What value of measured λem (fluorescence emission maximum) is listed for COc1cc(NC(=O)c2ccc3c(c2)C(=O)OC32c3ccc(OC(C)=O)cc3Oc3cc(N4CCCCC4)ccc32)ccc1N(CC(=O)OCOC(C)=O)CC(=O)OCOC(C)=O (stereo not drawn) ?
Given back: 557

Report λem (fluorescence emission maximum) for every entry below.
1. COc1cc(NC(=O)c2ccc3c(c2)C(=O)OC32c3ccc(NC4CCCCC4)cc3Oc3cc(OC(C)=O)ccc32)ccc1N(CC(=O)OCOC(C)=O)CC(=O)OCOC(C)=O (stereo not drawn)
2. CCCCN(CCCC)c1ccc2c(c1)Oc1cc(OC(C)=O)ccc1C21OC(=O)c2cc(C(=O)Nc3ccc(N(CC(=O)OCOC(C)=O)CC(=O)OCOC(C)=O)c(OC)c3)ccc21 (stereo not drawn)
3. COc1cc(NC(=O)c2ccc3c(c2)C(=O)OC32c3ccc(OC(C)=O)cc3Oc3cc(N4CC(F)(F)C4)ccc32)ccc1N(CC(=O)OCOC(C)=O)CC(=O)OCOC(C)=O (stereo not drawn)
4. CCN(CC)c1ccc2c(c1)Oc1cc(OC(C)=O)ccc1C21OC(=O)c2cc(C(=O)Nc3ccc(N(CC(=O)OCOC(C)=O)CC(=O)OCOC(C)=O)c(OC)c3)ccc21 (stereo not drawn)
5. COc1cc(NC(=O)c2ccc3c(c2)C(=O)OC32c3ccc(N)cc3Oc3cc(OC(C)=O)ccc32)ccc1N(CC(=O)OCOC(C)=O)CC(=O)OCOC(C)=O (stereo not drawn)

Given back:
1: 535; 2: 556; 3: 530; 4: 551; 5: 520
